Experiment: Apparent terminal disposition half life […] at peroral dose of 15 mg/kg.
Type: ADME, organism-based
Parameters: dose 15 mg/kg, route oral
Details: po, read-out: T1/2 beta (converted)
property_name: half-life
# output: numeric value plus its unit

### Prompt Look up and state reported half-life for CC(C)Nc1cccnc1N1CCN(C(=O)c2cc3cc(NS(C)(=O)=O)ccc3[nH]2)CC1 [DELAVIRDINE]
### Response 1 h

----------
Test: Steady state volume of distribution (VSS) determined against male Sprague-Dawley rats at an iv dose of 15.2 mg/kg
Assay type: ADME, organism-based
Design: dose 15.2 mg/kg, route intravenous
Settings: rat, in vivo, read-out: Vss
property_name: Vd (L/kg)
Write down the numeric answer in L/kg and omit the unit.

### Prompt Retrieve Vd measured for "CC(C)Cc1cccnc1N(C)C1CCN(C(=O)c2cc3cc(NS(C)(=O)=O)ccc3[nH]2)CC1" and print it.
### Response 2.73

----------
Assay: Apparent terminal disposition half life […] at peroral dose of 30 mg/kg.
Type: ADME, organism-based
Parameters: dose 30 mg/kg, route oral
Conditions: po, read-out: T1/2 beta (converted)
property_name: half-life (min)
Report the value in min with no unit label.

### Prompt # return recorded half-life for entry "CCCc1cccnc1N(CC)C1CCN(C(=O)c2cc3cc(NS(C)(=O)=O)ccc3[nH]2)CC1"
### Response 49.2

----------
Experiment: IV clearance determined at an peroral dose of 30.2 mg/kg.
Type: ADME, organism-based
Set-up: dose 30.2 mg/kg, route oral
Conditions: in vivo, po, read-out: Clearance
property_name: CL/F (mL/min/kg)
API: value field is a number in mL/min/kg; no unit string.

### Prompt Provide only the value of recorded CL/F for "CC(C)Nc1cccnc1N(C)C1CCN(C(=O)c2cc3cc(NS(C)(=O)=O)ccc3[nH]2)CC1"
### Response 44

----------
Experiment: Apparent terminal disposition half life […] at peroral dose of 30.2 mg/kg.
Type: ADME, organism-based
Parameters: dose 30.2 mg/kg, route oral
Settings: po, read-out: T1/2 beta (converted)
property_name: half-life (min)
Could you give me the number in min? Just the number is fine.

### Prompt Name the recorded half-life of the item "CC(C)Nc1cccnc1N(C)C1CCN(C(=O)c2cc3cc(NS(C)(=O)=O)ccc3[nH]2)CC1" in your answer.
### Response 40.2

----------
Test: Absolute oral bioavailability at an iv dose of 15.2 mg/kg
Type: ADME, organism-based
Conditions: in vivo, read-out: Bioavailabiility
property_name: bioavailability (%)
Return type: number; implicit unit %.

### Prompt Write down bioavailability measured for item "CC(C)Cc1cccnc1N(C)C1CCN(C(=O)c2cc3cc(NS(C)(=O)=O)ccc3[nH]2)CC1"
### Response 64

----------
Target: Human immunodeficiency virus type 1 reverse transcriptase (Human immunodeficiency virus 1, UniProt Q72547, P236L)
Assay: Inhibition of Reverse transcriptase (P236L) using poly(rA)600:oligo(dT)10 as template primer.
Could you please report measured pIC50 for the items listed next?
pIC50 here is simply -log10 of the concentration when that concentration is written in mol/L.

### Prompt State, in one line, measured pIC50 of "CCCN(c1ncccc1CC)C1CCN(C(=O)c2cc3cc(NS(C)(=O)=O)ccc3[nH]2)CC1"
### Response 6.27

### Prompt Given the compound "CCCc1cccnc1N(CC)C1CCN(C(=O)c2cc3cc(NS(C)(=O)=O)ccc3[nH]2)CC1" , write its reported pIC50.
### Response 6.43

### Prompt Provide only the value of recorded pIC50 for "CCc1cccnc1N(C)C1CCN(C(=O)c2cc3cc(NS(C)(=O)=O)ccc3[nH]2)CC1"
### Response 5.96

### Prompt Quick one: give measured pIC50 for "CN(c1ncccc1CO)C1CCN(C(=O)c2cc3cc(NS(C)(=O)=O)ccc3[nH]2)CC1"
### Response 5.15

### Prompt Return value of pIC50 for input "CCNc1cccnc1N(CC)C1CCN(C(=O)c2cc3cc(NS(C)(=O)=O)ccc3[nH]2)CC1" , no commentary.
### Response 6.44

----------
Kindly state log10 IC50 for each of the entries shown.
Target: Human immunodeficiency virus type 1 reverse transcriptase (Human immunodeficiency virus 1, UniProt Q72547, Y181C)
Test: Inhibition of Reverse transcriptase (Y181C) using poly(rA)600:oligo(dT)10 as template primer.
Lab note - IC50 converted to log10 from values in nM.

### Prompt Please give measured log10 IC50 of the following entry: "CCNc1cccnc1N(CC)C1CCN(C(=O)c2cc3cc(NS(C)(=O)=O)ccc3[nH]2)CC1"
### Response 2.59

### Prompt Please look at this molecule and report its log10 IC50: "CCc1cccnc1N(C)C1CCN(C(=O)c2cc3cc(NS(C)(=O)=O)ccc3[nH]2)CC1"
### Response 3.30

### Prompt Supply reported log10 IC50 belonging to this molecule: "CC(C)Cc1cccnc1N(C)C1CCN(C(=O)c2cc3cc(NS(C)(=O)=O)ccc3[nH]2)CC1"
### Response 3.41

### Prompt Determine its reported log10 IC50: "CCN(c1ncccc1COC)C1CCN(C(=O)c2cc3cc(NS(C)(=O)=O)ccc3[nH]2)CC1"
### Response 2.92

### Prompt Please indicate log10 IC50 recorded for "CCc1cccnc1N(CC)C1CCN(C(=O)c2cc3cc(NS(C)(=O)=O)ccc3[nH]2)CC1"
### Response 2.63

### Prompt Provide log10 IC50 value for the following molecule: "CN(c1ncccc1CO)C1CCN(C(=O)c2cc3cc(NS(C)(=O)=O)ccc3[nH]2)CC1"
### Response 4.18

----------
Target: Human immunodeficiency virus type 1 reverse transcriptase (Human immunodeficiency virus 1, UniProt Q72547, Y181C)
Experiment: Inhibition of Reverse transcriptase (Y181C) using poly(rA)600:oligo(dT)10 as template primer.
pIC50: −log10 of the molar value.
Label Condition met when pIC50 >= 5; otherwise Condition not met.

### Prompt Evaluate "CCCc1cccnc1N(CC)C1CCN(C(=O)c2cc3cc(NS(C)(=O)=O)ccc3[nH]2)CC1" : pIC50 at minimum 5?
### Response Condition met

### Prompt Dear colleague, could you confirm whether "CCCN(c1ncccc1CC)C1CCN(C(=O)c2cc3cc(NS(C)(=O)=O)ccc3[nH]2)CC1" has pIC50 at or above 5?
### Response Condition met

### Prompt Is pIC50 at least 5? Consider "CCN(c1ncccc1CC(C)C)C1CCN(C(=O)c2cc3cc(NS(C)(=O)=O)ccc3[nH]2)CC1"
### Response Condition met

### Prompt Check if pIC50 >= 5 (inclusive). Item: "COC(=O)c1cccnc1N(C)C1CCN(C(=O)c2cc3cc(NS(C)(=O)=O)ccc3[nH]2)CC1"
### Response Condition not met

----------
Assay: Absolute oral bioavailability at an peroral dose of 30.3 mg/kg orally.
Format: ADME, organism-based
Details: in vivo, read-out: Bioavailabiility
property_name: bioavailability (%)
Please reply with the bare figure in % and do not write the unit itself.

### Prompt Please give the documented bioavailability of "CC(C)Cc1cccnc1N(C)C1CCN(C(=O)c2cc3cc(NS(C)(=O)=O)ccc3[nH]2)CC1"
### Response 64

----------
Assay: IV clearance determined at an peroral dose of 30 mg/kg.
Format: ADME, organism-based
Design: dose 30 mg/kg, route oral
Details: in vivo, po, read-out: Clearance
property_name: CL/F (mL/min/kg)
Express it in mL/min/kg; write the number only.

### Prompt State, in one line, measured CL/F of "CCCc1cccnc1N(CC)C1CCN(C(=O)c2cc3cc(NS(C)(=O)=O)ccc3[nH]2)CC1"
### Response 67

----------
Assay: Apparent terminal disposition half life […] at iv dose of 14 mg/kg
Format: ADME, organism-based
Design: dose 14 mg/kg, route intravenous
Conditions: read-out: T1/2 beta (converted)
property_name: half-life (h)
The response must be a number in h with no trailing unit.

### Prompt Report measured half-life; entry is CC(C)Nc1cccnc1N1CCN(C(=O)c2cc3cc(NS(C)(=O)=O)ccc3[nH]2)CC1 [DELAVIRDINE]
### Response 1

----------
Assay: Absolute oral bioavailability at an iv dose of 14 mg/kg
Assay type: ADME, organism-based
Conditions: in vivo, read-out: Bioavailabiility
property_name: bioavailability (%)
Answer format: numeric, % implied, no suffix.

### Prompt Answer with reported bioavailability of "CC(C)Nc1cccnc1N1CCN(C(=O)c2cc3cc(NS(C)(=O)=O)ccc3[nH]2)CC1"
### Response 64

----------
Assay: Steady state volume of distribution (VSS) determined against male Sprague-Dawley rats at an iv dose of 14 mg/kg
Type: ADME, organism-based
Set-up: dose 14 mg/kg, route intravenous
Details: rat, in vivo, read-out: Vss
property_name: Vd (L/kg)
Write down the numeric answer in L/kg and omit the unit.

### Prompt Tell me its Vd given CC(C)Nc1cccnc1N1CCN(C(=O)c2cc3cc(NS(C)(=O)=O)ccc3[nH]2)CC1 [DELAVIRDINE] as the entry.
### Response 1.21
